The following binders are shown together with reported OD450 values.
target.under.test: T1, monkey CD22 protein (ACROBiosystems, catalog number SI2-R52Ha) (monkey, UniProt F6W485 20-688)
T1 construct: commercial protein; also called monkey CD22-ECD; monkey CD22-ECD-His
T1 sequence: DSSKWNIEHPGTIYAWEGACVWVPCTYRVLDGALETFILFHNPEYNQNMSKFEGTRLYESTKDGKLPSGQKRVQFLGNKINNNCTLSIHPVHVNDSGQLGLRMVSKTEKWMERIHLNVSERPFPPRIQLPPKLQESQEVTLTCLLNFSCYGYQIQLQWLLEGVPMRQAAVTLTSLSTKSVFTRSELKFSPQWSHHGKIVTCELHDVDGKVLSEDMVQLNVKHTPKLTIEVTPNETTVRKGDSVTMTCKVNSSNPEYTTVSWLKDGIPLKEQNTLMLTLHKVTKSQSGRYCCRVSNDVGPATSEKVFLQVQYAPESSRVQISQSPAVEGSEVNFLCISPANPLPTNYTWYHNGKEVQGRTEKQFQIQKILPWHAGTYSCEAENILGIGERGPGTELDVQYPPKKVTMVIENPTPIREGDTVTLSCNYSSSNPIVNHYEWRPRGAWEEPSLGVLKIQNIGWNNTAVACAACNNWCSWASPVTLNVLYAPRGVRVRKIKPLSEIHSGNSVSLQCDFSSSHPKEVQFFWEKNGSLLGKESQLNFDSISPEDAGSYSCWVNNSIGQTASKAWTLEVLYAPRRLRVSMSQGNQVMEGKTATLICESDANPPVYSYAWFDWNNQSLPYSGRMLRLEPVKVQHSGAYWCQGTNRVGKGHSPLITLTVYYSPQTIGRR
test.summary: ELISA, coated monkey CD22 protein, antibody 10 nM

binder	OD450 [OD450]
F1.17.1 (antibody, human IgG1, kappa, V domains shown, human-murine chimeric IgG1 kappa) VH: QVQLKESGPGLVAPSQSLSITCTVSGFSLSRYTVHWVRQPPGKGLEWLGMIWGGGSTDYNSALKSRLSISKDNSKSQVFLKMNSLQTDDTAMYYCARPHDFDAGGFAYWGQGTLVTVSA VL: QIVLTQSPAILSTSPGEKVTMTCSASSRVNYMYWYQQKPGSSPRLLIYDTSNLASGVPVRFSGSGSGTSYSLTISRMEAEDAATYYCQQWTSYPLTFGAGTKLELKR	2.16
F1.267.9 (antibody, human IgG1, kappa, V domains shown, human-murine chimeric IgG1 kappa; VL name legible) VH: EVQLQQSGPVLVKPGASVKMSCKASGYTFTDFYMNWAKQSHGKSLEWVGVINPYNGGINYNQKFKGKATLTVDKSSSTAYMEFNSLTSEDSAVYYCARRMEYHAMDYWGQGTSVTVSS VL: DIVLTQSPASLAVSLGQRATISCRASESVDNYGFDFIHWYQQKPGQPPKLLIYRASNLESGIPARFSGSGSRPDFTLTINPVETDDVATYYCQQSIKDPWTFGGGTKLEIKR	1.89

The origin of these recorded values is patent US20240084003A1.
